Test name: Plasma concentrations (PK), Example 1
Format: in vivo, human
Experimental context: human, plasma, oral, 100 mg, 100 mg BID; Week 8; Trough; read-out: Plasma concentration, Geometric Mean
Measured property: level at 1344 h (ng/mL)
Provide only the numeric value, understood in ng/mL.

## Input For CC(=O)NCCCC[C@@H]1NC(=O)[C@H](Cc2c[nH]c3c(C)cccc23)NC(=O)[C@H]([C@@H](C)O)NC(=O)[C@H](CC(N)=O)NC(=O)[C@@H](NC(C)=O)C(C)(C)SSC(C)(C)[C@@H](C(=O)N[C@@H](Cc2ccc(OCCN)cc2)C(=O)N[C@@H](Cc2ccc3ccccc3c2)C(=O)NC2(C(=O)N[C@@H](CCC(=O)O)C(=O)N[C@@H](CC(N)=O)C(=O)N[C@@H](Cc3cccnc3)C(=O)N(C)CC(N)=O)CCOCC2)NC1=O [IL-23 receptor antagonist peptide] , what is its reported level at 1344 h?
## Output 0.664

====

Test name: Plasma concentrations (PK), Example 1
Type: in vivo, human
Experimental context: human, plasma, oral, 100 mg, weight >90 kg, 100 mg QD, Week 12, Peak; read-out: Plasma concentration, Median
Measured property: level at 2016 h (ng/mL)
Provide only the numeric value, understood in ng/mL.

## Input For CC(=O)NCCCC[C@@H]1NC(=O)[C@H](Cc2c[nH]c3c(C)cccc23)NC(=O)[C@H]([C@@H](C)O)NC(=O)[C@H](CC(N)=O)NC(=O)[C@@H](NC(C)=O)C(C)(C)SSC(C)(C)[C@@H](C(=O)N[C@@H](Cc2ccc(OCCN)cc2)C(=O)N[C@@H](Cc2ccc3ccccc3c2)C(=O)NC2(C(=O)N[C@@H](CCC(=O)O)C(=O)N[C@@H](CC(N)=O)C(=O)N[C@@H](Cc3cccnc3)C(=O)N(C)CC(N)=O)CCOCC2)NC1=O [IL-23 receptor antagonist peptide] , what is its reported level at 2016 h?
## Output 1.09

====

Test name: Plasma concentrations (PK), Example 1
Format: in vivo, human
Experimental context: human, plasma, oral, 100 mg, 100 mg BID; Week 8; Peak; read-out: Plasma concentration, Geometric Mean
Measured property: level at 1344 h (ng/mL)
Provide only the numeric value, understood in ng/mL.

## Input For CC(=O)NCCCC[C@@H]1NC(=O)[C@H](Cc2c[nH]c3c(C)cccc23)NC(=O)[C@H]([C@@H](C)O)NC(=O)[C@H](CC(N)=O)NC(=O)[C@@H](NC(C)=O)C(C)(C)SSC(C)(C)[C@@H](C(=O)N[C@@H](Cc2ccc(OCCN)cc2)C(=O)N[C@@H](Cc2ccc3ccccc3c2)C(=O)NC2(C(=O)N[C@@H](CCC(=O)O)C(=O)N[C@@H](CC(N)=O)C(=O)N[C@@H](Cc3cccnc3)C(=O)N(C)CC(N)=O)CCOCC2)NC1=O [IL-23 receptor antagonist peptide] , what is its reported level at 1344 h?
## Output 1.86

====

Test name: Plasma concentrations (PK), Example 1
Type: in vivo, human
Experimental context: human, plasma, oral, 25 mg, 25 mg BID; Week 12; Trough; read-out: Plasma concentration, Mean
Measured property: level at 2016 h (ng/mL)
Provide only the numeric value, understood in ng/mL.

## Input For CC(=O)NCCCC[C@@H]1NC(=O)[C@H](Cc2c[nH]c3c(C)cccc23)NC(=O)[C@H]([C@@H](C)O)NC(=O)[C@H](CC(N)=O)NC(=O)[C@@H](NC(C)=O)C(C)(C)SSC(C)(C)[C@@H](C(=O)N[C@@H](Cc2ccc(OCCN)cc2)C(=O)N[C@@H](Cc2ccc3ccccc3c2)C(=O)NC2(C(=O)N[C@@H](CCC(=O)O)C(=O)N[C@@H](CC(N)=O)C(=O)N[C@@H](Cc3cccnc3)C(=O)N(C)CC(N)=O)CCOCC2)NC1=O [IL-23 receptor antagonist peptide] , what is its reported level at 2016 h?
## Output 0.202
